experiment_description: qHTS assay to identify small molecule agonists of the constitutive androstane receptor (CAR) signaling pathway - cell viability counter screen (AID 1224836); further: on the % scale 0 is the no-effect control and ±100 the full control effect; nearly all actives have a fitted effect of over 45% in size
condition_label: HepG2-CYP2B6-hCAR viability, CellTiter-Fluor, 23 h, PK11195 added to every well; series mostly up to 92.4 µM
Records with an inconclusive call do not appear. Activity calls are given as the source filed them. The call rests on the fitted dose curve; in most records, active means well fitted cell-killing curve with a large enough effect in the repeat runs; inconclusive means weak or mixed curves, or effect the other way; inactive means flat fitted curve, though single readings scatter.
Select the correct class. Options are Y = active, N = inactive and nothing else.

stdin: Recorded call for COc1ccc(C2C(=O)c3ccccc3C2=O)cc1 ?
stdout: N

stdin: Which outcome was assigned to CC(=O)OCCC1CCCCC1 in this test?
stdout: N

stdin: Could you check what this test reported for Cc1cc(CCCOc2c(C)cc(-c3noc(C(F)(F)F)n3)cc2C)on1 ?
stdout: N

stdin: Hello, I am checking results. What call was entered for CC(C)C(=O)OCCOc1ccccc1 ?
stdout: N

Others:
stdin: Identify the outcome logged in this assay for the molecule shown: CNc1c2c(nn1C)CCCC2
stdout: N

stdin: What call does the record list for C[C@@H]1[C@H](O)[C@@H](C)/C=C/C=C\C=C\C=C\C=C\C=C\C=C\[C@H](O[C@@H]2O[C@H](C)[C@@H](O)[C@H](N)[C@@H]2O)C[C@@H]2O[C@](O)(C[C@@H](O)C[C@@H](O)[C@H](O)CC[C@@H](O)C[C@@H](O)CC(=O)O[C@H]1C)C[C@H](O)[C@H]2C(=O)O (stereo in doubt) ?
stdout: N

stdin: Could you check what this test reported for CC1CCc2nccnc21 (stereo not given) ?
stdout: N

stdin: Recorded test call requested for CC(C)(C(=O)c1cccnc1)c1cccnc1
stdout: N

---

experiment_description: qHTS assay to identify small molecule antagonists of the retinoid-related orphan receptor gamma (ROR-gamma) signaling pathway - cell viability counter screen (AID 1159520); further: nearly all actives have a fitted effect of over 50% in size; further: potency means the concentration at half of the fitted maximal effect
condition_label: Tet-on RORgamma CHO cells viability, ATP luminescence, 16 h; series mostly up to 92.4 µM
Inconclusive results are not listed. Activity calls are given as the source filed them. Calls come from the whole dose curve; as a rule, active = well fitted cell-killing curve with a large enough effect in the repeat runs; inconclusive = weak or mixed curves, or effect the other way; inactive = no such curve, though single readings can be large or run the other way.
readout: Potency

# annotated cases, reported Potency shown
stdin: Look up and report measured Potency for this entry: Cc1c(C2(c3cc(Br)c(O)c(Br)c3C)OS(=O)(=O)c3ccccc32)cc(Br)c(O)c1Br
stdout: 3.74 µM (active)

stdin: Read off the recorded Potency for CC[C@@H](CO)NCCN[C@@H](CC)CO
stdout: inactive

stdin: Look up Potency of CC1C(C)(C)C2=C(C(=O)CCC2)C1(C)C (stereo not drawn) and report it.
stdout: inactive

stdin: Specify reported Potency for the molecule shown: COc1ccc2nc(S(=O)Cc3ncc(C)c(OC)c3C)[nH]c2c1 (stereo not drawn)
stdout: inactive

Field: next molecule
stdin: Give a short answer stating reported Potency for O=C(O)CN1C(=O)c2cccc3cccc(c23)C1=O .
stdout: inactive

---

experiment_description: A CellTox Green Cytotoxicity Assay to monitor cytotoxicity in HEK293 cells - 32 hour (AID 1224881); further: on the % scale 0 is the no-effect control and ±100 the full control effect; nearly all actives have a fitted effect of over 40% in size
condition_label: CellTox Green fluorescence; series mostly up to 76.8 µM
Records with an inconclusive call do not appear. The source made the active and inactive calls. Calls follow the shape of the dose curve; as a rule, active = well fitted activation curve with a large enough effect in the repeat runs; inconclusive = weak or mixed curves; inactive = flat fitted curve, though single readings scatter.
# cytotoxicity increase per entry

stdin: For the compound CCCCCCCCCCCCCCN(C)C , report cytotoxicity increase.
stdout: -32.2% [at 15.8 µM] (inactive)

stdin: Specify reported cytotoxicity increase for the compound shown: CCCCCCCCCCCCCOC(=O)CCSCCC(=O)OCCCCCCCCCCCCC
stdout: 13.9% [at 15.8 µM] (inactive)

stdin: Determine its reported cytotoxicity increase: CC1=CC[C@@H]2C[C@H]1C2(C)C
stdout: 1.12% [at 15.8 µM] (inactive)

Okay, next one:
stdin: Read the entry c1ccc2sc(SSc3nc4ccccc4s3)nc2c1 and write its reported cytotoxicity increase.
stdout: 13.3% [at 15.8 µM] (inactive)
